- assay_details: log P by HPLC (EEC Directive 79/831 Annex V.A8)
- Format: physicochemical
- run_parameters: HPLC (LC-MS); [b] LC-MS, acidic range, pH 2.7, 0.1% aqueous formic acid and acetonitrile; read-out: log P
Form field: chromatographic logP (one value per entry).
Answer using only a numeral; do not append any unit.

> print(dat)
                                   molecule           metric.name  assay.value
1  O=C(OC1CCCCC1)c1cccc(C2CCN(C(=O)Cn3nc(C(F)F)cc3C(F)F)CC2)n1 [Example 99]  chromatographic logP         3.83
2  O=C(O)c1cccc(C2CCN(C(=O)Cn3nc(C(F)F)cc3C(F)F)CC2)n1 [Example 135]  chromatographic logP         1.55
3  Cc1cc(C(F)(F)F)nn1CC(=O)N1CCC(c2cccc(C(=O)N(C)C3CCCc4ccccc43)n2)CC1 (stereo not shown) [Example 12]  chromatographic logP         3.61

Field request: chromatographic logP | item: CCOC(=O)c1cccc(C2CCN(C(=O)Cn3nc(C(F)F)cc3C(F)F)CC2)n1 [Example 131] 2.68
